# Tested on: SEM cells
# experiment_notes: cell viability relative to DMSO control; higher = less cytotoxic
# cond: HPLM + 10% dialyzed FBS; 48 h; 46.1 µM
We begin with a simple list: items and their reported cell viability.
Only the number, expressed in %, is required.

Worked examples, 5 molecules total:
>  <smiles>
FC(F)(F)c1ccc(/C=C/c2nc(COc3ccc(CCCCn4ccnn4)cc3)co2)cc1

>  <reported_metric>
cell viability

>  <value_units>
%

>  <numeric_readout>
98.7

$$$$
>  <smiles>
CN\1C(=O)/C(=C(\N=C1N2CCCC[S+]2([O-])=O)C(=O)NCC3=CC=C(F)C=C3)O

>  <reported_metric>
cell viability

>  <value_units>
%

>  <numeric_readout>
91.2

$$$$
>  <smiles>
C[C@]12CC[C@@H]3c4ccc(OC(=O)N(CCCl)CCCl)cc4CC[C@H]3[C@@H]1CC[C@@H]2OP(=O)([O-])[O-].[Na+].[Na+]

>  <reported_metric>
cell viability

>  <value_units>
%

>  <numeric_readout>
63.2

$$$$
>  <smiles>
CC(C)n1c(/C=C/[C@H](O)C[C@H](O)CC(=O)O)c(-c2ccc(F)cc2)c2ccccc21

>  <reported_metric>
cell viability

>  <value_units>
%

>  <numeric_readout>
37.9

$$$$
>  <smiles>
Oc1ccc2c3c1O[C@H]1c4[nH]c5c(c4C[C@@]4(O)[C@@H](C2)N(CC2CC2)CC[C@]314)C[C@@]1(O)[C@H]2Cc3ccc(O)c4c3[C@@]1(CCN2CC1CC1)[C@H]5O4

>  <reported_metric>
cell viability

>  <value_units>
%

>  <numeric_readout>
119

$$$$

# next molecule below
So for CC(=O)O[C@H]1C[C@@H]2CC[C@@H]3[C@H](CC[C@@]4(C)[C@H]3C[C@H]([N+]3(C)CCCCC3)[C@@H]4OC(C)=O)[C@@]2(C)C[C@@H]1[N+]1(C)CCCCC1 , the logged cell viability turned out to be 117

----------
# System: NOMO1
# experiment_notes: cell viability relative to DMSO control; higher = less cytotoxic
# cond: RPMI 5 mM glucose + 10% dialyzed FBS; 48 h; 1.71 µM
reported_metric: cell viability (%)
Only the number, expressed in %, is required.

Worked examples, 5 compounds total:
>  <compound>
CC(NC1=CC=CC=C1)C\2=C\C(=C/N3C(=O)\C=C(/N=C23)N4CCOCC4)C (stereo unspecified)

>  <reported_metric>
cell viability

>  <numeric_readout>
108

$$$$
>  <compound>
NC1(Cc2ccc(Cl)cc2)CCN(c2ncnc3[nH]ccc23)CC1

>  <reported_metric>
cell viability

>  <numeric_readout>
80.9

$$$$
>  <compound>
OC[C@H]1O[C@@H](O[C@@H]2[C@@H](CO)O[C@](O)(CO)[C@H]2O)[C@H](O)[C@@H](O)[C@H]1O

>  <reported_metric>
cell viability

>  <numeric_readout>
98.7

$$$$
>  <compound>
CC1(C)O[C@@H]2C[C@H]3[C@@H]4CCC5=CC(=O)C=C[C@]5(C)[C@@]4(F)[C@@H](O)C[C@]3(C)[C@]2(C(=O)CO)O1

>  <reported_metric>
cell viability

>  <numeric_readout>
110

$$$$
>  <compound>
C[C@H](NC(=O)/C(C#N)=C/c1cccc(Br)n1)c1ccccc1

>  <reported_metric>
cell viability

>  <numeric_readout>
93.8

$$$$

So for O=NN(CCCl)C(=O)NCCCl , the logged cell viability turned out to be 109

So for Oc1ccc2c3c1O[C@H]1c4[nH]c5c(c4C[C@@]4(O)[C@@H](C2)N(CC2CC2)CC[C@]314)C[C@@]1(O)[C@H]2Cc3ccc(O)c4c3[C@@]1(CCN2CC1CC1)[C@H]5O4 , the logged cell viability turned out to be 110

So for CCN(CC)CC#CCOC(=O)C(O)(c1ccccc1)C1CCCCC1 (stereo unspecified) , the logged cell viability turned out to be 132

So for Cc1cc(OCCCc2c(C(=O)O)n(Cc3cccnc3)c3c(-c4c(COc5ccc(N6CCN([S+](C)(=O)[O-])CC6)cc5)nn(C)c4C)cccc23)cc(C)c1Cl , the logged cell viability turned out to be 98.2

So for Cn1c(=O)c2c(ncn2C)n(C)c1=O.O=C(O)CC(O)(CC(=O)O)C(=O)O , the logged cell viability turned out to be 98.6

So for N=C(CCSCc1csc(N=C(N)N)n1)N[S+](N)(=O)[O-] , the logged cell viability turned out to be 93.7

So for CO[C@H]1/C=C/O[C@@]2(C)Oc3c(C)c(O)c4c(O)c(c5c(nc6cc(C)ccn65)c4c3C2=O)NC(=O)/C(C)=C\C=C\[C@H](C)[C@H](O)[C@@H](C)[C@@H](O)[C@@H](C)[C@H](OC(C)=O)[C@@H]1C , the logged cell viability turned out to be 99.7

So for COC1=CC=CC=C1C2=CC=CC(=C2)C/3=C(O)/C4=CC(=C(Cl)C=C4NC3=O)C#N , the logged cell viability turned out to be 108

So for CCC(C)SSc1ncc[nH]1 (stereo unspecified) , the logged cell viability turned out to be 105

So for C[C@@H](NC1=CC=CC=C1C(O)=O)C/2=C/C(=C\N3C(=O)/C=C(\N=C23)N4CCOCC4)C , the logged cell viability turned out to be 65.2

So for C[C@H]1[C@H](NC(=O)/C(=N/OC(C)(C)C(=O)O)c2csc(N)n2)C(=O)N1[S+](=O)([O-])O , the logged cell viability turned out to be 99.2
